experiment: Pharmacokinetics and oral bioavailability of D8.3.p1 and D10.1 in Balb/C female mice (PO, SQ, IV); format: in vivo; conditions: mouse, in vivo, iv, 1 mg/kg, C0
Where a SMILES comes first, the peptide text is derived from it. [ ]: non-standard residue; d: D form. dNMeL = CN[C@H](CC(C)C)C(=O)O
Recorded metric: C0 (nM)
Please respond with the number in nM and leave the unit unwritten.

Request the reported C0 associated with CC[C@@H](C)[C@H]1NC(=O)[C@@H](CC(C)C)NC(=O)[C@@H](CC(C)C)N(C)C(=O)[C@@H]2CCCN2C(=O)[C@@H](C(C)C)NC(=O)[C@H](CC(C)C)NC(=O)[C@@H](CC(C)C)N(C)C(=O)[C@@H]2CCCN2C1=O [Design D8.3.p1, DLEU DVAL PRO *DLEU DLEU DILE PRO *DLEU] (cyclo(L[dV]P[dNMeL][dL][dI]P[dNMeL]))
1520
